protocol_description: Equilibrium solubility of the compound in phosphate buffer at pH 7.4
Format: physicochemical
Recorded solubility thermodynamic by entry
Only the number, expressed in µM, is required.

In the examples that follow, each entry is paired with its recorded solubility thermodynamic.
structure	solubility thermodynamic [µM]
Cc1nocc1C(=O)Nc1cc(-c2nc3ccccc3[nH]2)[nH]n1	2
N#Cc1cccc(C(=O)Nc2ncc(-c3nc4ccccc4n3CCN)s2)c1	13

Turning now to a further compound:
Input line: Name the recorded solubility thermodynamic of the compound listed here: `N#Cc1cccc(C(=O)Nc2ncc(-c3nc4ccccc4[nH]3)s2)c1`
Output line: 1

* * *

This section presents compounds with their documented log10(IC50) values.
target_system: cAMP and cAMP-inhibited cGMP 3',5'-cyclic phosphodiesterase 10A (Homo sapiens)
Sequence (Q9Y233 whole entry): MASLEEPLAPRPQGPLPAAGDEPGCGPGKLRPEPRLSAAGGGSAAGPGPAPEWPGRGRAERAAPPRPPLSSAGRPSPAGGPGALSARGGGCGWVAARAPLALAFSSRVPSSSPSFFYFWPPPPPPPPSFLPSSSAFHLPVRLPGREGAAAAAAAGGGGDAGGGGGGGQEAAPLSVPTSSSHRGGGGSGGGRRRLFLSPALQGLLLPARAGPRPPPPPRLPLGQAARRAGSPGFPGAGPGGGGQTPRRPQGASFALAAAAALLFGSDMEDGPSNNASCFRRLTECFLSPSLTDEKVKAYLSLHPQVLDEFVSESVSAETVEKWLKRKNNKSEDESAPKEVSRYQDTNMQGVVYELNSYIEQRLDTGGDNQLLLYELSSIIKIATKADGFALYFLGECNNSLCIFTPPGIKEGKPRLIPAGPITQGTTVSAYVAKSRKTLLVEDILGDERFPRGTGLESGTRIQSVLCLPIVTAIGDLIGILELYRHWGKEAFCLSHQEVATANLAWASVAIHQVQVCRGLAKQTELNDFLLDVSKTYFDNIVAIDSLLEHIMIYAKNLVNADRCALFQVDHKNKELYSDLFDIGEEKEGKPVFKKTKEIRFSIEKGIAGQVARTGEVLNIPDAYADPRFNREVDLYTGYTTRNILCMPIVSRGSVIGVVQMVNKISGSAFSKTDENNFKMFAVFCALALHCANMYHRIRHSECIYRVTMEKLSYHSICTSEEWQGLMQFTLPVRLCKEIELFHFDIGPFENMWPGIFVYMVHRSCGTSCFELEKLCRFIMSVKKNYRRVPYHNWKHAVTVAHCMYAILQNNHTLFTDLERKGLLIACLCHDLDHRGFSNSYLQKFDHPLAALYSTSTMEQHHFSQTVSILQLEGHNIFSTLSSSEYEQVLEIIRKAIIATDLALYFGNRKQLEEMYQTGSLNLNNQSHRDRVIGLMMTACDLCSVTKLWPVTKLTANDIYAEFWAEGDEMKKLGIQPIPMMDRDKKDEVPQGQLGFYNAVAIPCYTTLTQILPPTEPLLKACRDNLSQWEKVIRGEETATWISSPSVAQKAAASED
protocol_description: Inhibition of human recombinant PDE10A using cAMP as substrate preincubated for 20 mins followed by substrate addition measured after 2 hrs by FRET assay
The common logarithm of IC50 in nM is what is listed.

structure	log10(IC50)
N#Cc1cccc(C(=O)Nc2ncc(-c3nc4ccccc4[nH]3)s2)c1	2.04
Cc1nocc1C(=O)Nc1cc(-c2nc3ccccc3[nH]2)[nH]n1	3.58
Cn1c(-c2cnc(NC(=O)c3cccc(C#N)c3)s2)nc2ccccc21	2.08
Cc1c(Cl)cccc1C(=O)Nc1ncc(-c2nc3ccccc3n2C)s1	1.20
Cc1cccc(C(=O)Nc2cc(-c3nc4ccccc4[nH]3)[nH]n2)c1Cl	2.45

Input line: Fetch value of log10(IC50) on cAMP and cAMP-inhibited cGMP 3',5'-cyclic phosphodiesterase 10A (Homo sapiens) for `N#Cc1cccc(C(=O)Nc2ncc(-c3nc4ccccc4n3CCN)s2)c1` .
Output line: 2.69

Input line: Provide log10(IC50), tested on cAMP and cAMP-inhibited cGMP 3',5'-cyclic phosphodiesterase 10A (Homo sapiens), for `Cc1c(Cl)cccc1C(=O)Nc1cc(-c2nc3ccccc3[nH]2)[nH]n1` .
Output line: 2.00
